Attribution: patent US10227331B2

Measured on: VIM-1 (Pseudomonas aeruginosa (strain ATCC 15692 / DSM 22644 / CIP 104116 / JCM 14847 / LMG 12228 / 1C / PRS 101 / PAO1))
Protocol description: biochemical
Test conditions: CCF2-FA substrate, 2 hours at 25° C
pIC50: −log10 of the molar value.
Returns one of t or f; t when pIC50 is >= 9.

Molecule | Assigned label
NCc1cncc(-c2ccc(S(=O)(=O)C3CNC3)c(S(N)(=O)=O)c2-c2nnn[nH]2)c1.O=C(O)C(F)(F)F [Example 107, 2,2,2-trifluoroacetate] | f
CS(=O)(=O)c1ccc(-c2cccc3sc(N)nc23)c(-c2nn[nH]n2)c1S(N)(=O)=O | t
Nc1nc2c(-c3ccc(S(=O)(=O)CC(N)CO)c(S(N)(=O)=O)c3-c3nn[nH]n3)cccc2s1 (stereo not shown) | t
C[C@H](CN)S(=O)(=O)c1ccc(-c2cccc3nc(N)[nH]c23)c(-c2nn[nH]n2)c1S(N)(=O)=O | t
